# System: MDA-MB-435 melanoma
# Method Description: NCI-60 one-dose screen, 48 h (100 = growth as untreated, 0 = no growth, -100 = all killed)
# Particulars: 10 µM unless noted
About 83,000 compounds went through this panel and 20% of them were active in at least one assay; those are over-represented in the sample as a whole. The source made the active and inactive calls. Rule for the calls: active = growth percent below 10; inactive = the rest.
Measure: growth

smiles_repr=O=[N+]([O-])c1cccc(CN(Cc2cccc([N+](=O)[O-])c2O)c2ccccc2)c1O measure=growth result_value="91.4% (inactive)"
smiles_repr=CC[C@]12C=CCN3CC[C@@]4(c5cc(NC(=O)CCC(=O)O[C@H]6CC[C@H]7[C@@H]8CC[C@H]9CC(=O)CC[C@]9(C)[C@H]8CC[C@]67C)c(OC)cc5N(C)[C@H]4[C@@](O)(C(=O)OC)[C@@H]1OC(C)=O)[C@@H]32 measure=growth result_value="76.5% (inactive)"
smiles_repr=Nc1c(C(=O)Nc2ccccn2)sc2nc3c(cc12)CCCC3 measure=growth result_value="-24.6% (active)"
smiles_repr=Oc1c(CCl)cc(Cl)cc1Cc1cc(Cl)cc(Cc2cc(Cl)cc(CCl)c2O)c1O measure=growth result_value="44.1% (inactive)"

###

# Tested on: IGROV1 ovarian
# Method Description: NCI-60 one-dose screen, 48 h (100 = growth as untreated, 0 = no growth, -100 = all killed)
# Particulars: 10 µM unless noted
The panel holds about 83,000 compounds, 20% with a hit somewhere; the sample as a whole holds those more often.
Rule for this label: Condition met means growth is less than 60%; Condition not met means growth is at least 60%.

compound=Cc1cc(C)cc(Nc2nccc(-c3c(-c4ccc(F)cc4)ncn3C3CCNCC3)n2)c1 answer_label="Condition met"
compound=C=C(C)[C@@H]1CC[C@]2(C(=O)O)CC[C@]3(C)[C@H](CC[C@@H]4[C@@]5(C)C[C@@H](CC#Cc6ccc(Cl)cc6)C(=O)C(C)(C)[C@@H]5CC[C@]43C)[C@@H]12 answer_label="Condition not met"
compound=NCCN1CCNCC1 answer_label="Condition not met"
compound="COc1cc(C2CC(c3ccc(Nc4nc(NCCO)nc(NCCO)n4)cc3)=NN2c2cc(Cl)cc(Cl)c2)cc(OC)c1OC (stereo not drawn)" answer_label="Condition met"
compound="COc1ccc2c(c1)Oc1nc(N)c(C#N)c(N)c1C2Sc1ccc(O)cc1 (stereo not drawn)" answer_label="Condition not met"
compound="OCCNc1nc(NCCO)nc(Nc2ccc(C3=NN(c4cc(Cl)cc(Cl)c4)C(c4ccc(C(F)(F)F)cc4)C3)cc2)n1 (stereo not drawn)" answer_label="Condition met"
compound=CC(=O)c1ccc(NC(=O)CSc2nnc(-c3cc(-c4ccc(Cl)cc4)nc4ccccc34)o2)cc1 answer_label="Condition not met"

###

# Tested on: KM12 colon
# Method Description: NCI-60 one-dose screen, 48 h (100 = growth as untreated, 0 = no growth, -100 = all killed)
# Particulars: 10 µM unless noted
Compounds without any hit were thinned out: in the full panel of roughly 83,000, 20% have a hit.
So basically: is growth under 70%? Then Yes. Not under? Then No.

molecule=Cn1c2c(c3ccc(-c4ccn[nH]4)cc3c1=O)C(=O)c1ccccc1-2 answer_label=Yes
molecule=CCCCCOC(=O)c1ccccc1O answer_label=No
molecule=COc1ccccc1C(=O)/C=C/c1cc2cccc(OC)c2[nH]c1=O answer_label=Yes
molecule=N#Cc1ccc(Oc2ccc3ccc(=O)oc3c2)cc1 answer_label=No
molecule=COc1ccc(-c2cs/c(=N\N=C\c3ccc(O)cc3O)n2/N=C/c2ccc(O)cc2O)cc1 answer_label=Yes
molecule="COc1ccc2nc(-c3ccc(Cl)cc3)cc(C(=O)N3N=C(c4ccc(N)cc4)CC3c3ccccc3)c2c1 (stereo not given)" answer_label=Yes
molecule=NC[C@@H]1CCN(c2cc3c(cc2F)c(=O)n(N)c(=O)n3Cc2ccc(-c3ccccc3)cc2)C1 answer_label=No
molecule=C=C(C)[C@@H]1CCC=C2CC[C@]3(C)[C@H](CC[C@@H]4[C@@]5(C)CCCNC(C)(C)[C@@H]5CC[C@]43C)[C@H]21 answer_label=Yes
molecule=Cc1c(C(=O)Nc2nc3ccccc3[nH]2)cnn1-c1ccccn1 answer_label=No
molecule=CO[C@@]12C=C[C@@]34CCC(=O)N3c3ccccc3[C@@H](O1)C4C2 answer_label=No
molecule=COc1ccc(/C=C(/C(=O)N2CCN(Cc3ccccc3)CC2)c2cc(OC)c(OC)c(OC)c2)cc1O answer_label=Yes
molecule="CCCCCCC/C=C/[C@H]1O[C@]23C(=O)C[C@@]4(C[C@@H](OC5OC(CO)C(O)C(O)C5O)C[C@@H]4[C@H]2C=C1C)OC3=O (stereo not given in full)" answer_label=Yes
molecule="CCCCC1=c2c([nH]c3ccc(OC)cc23)=NC2C=CC=NC12 (stereo not given)" answer_label=Yes
molecule="COc1cc(C(C)c2ccc3c(ccn3C)c2)cc(OC)c1OC (stereo not given)" answer_label=Yes
molecule="O=C1NC(c2ccc(F)cc2)N=C2C(c3ccccc3)=NOC12 (stereo not given)" answer_label=No
molecule=O=[N+]([O-])c1ccc(N=Nc2c(O)c(N=Nc3cc([N+](=O)[O-])cc([N+](=O)[O-])c3O)cc(N=Nc3cc(S(=O)(=O)O)cc4cc(S(=O)(=O)O)cc(O)c34)c2O)cc1 answer_label=No
molecule=Cc1cc2ccccc2c[n+]1CC(=O)c1ccc(-c2ccccc2)cc1 answer_label=Yes
molecule="O=CN1N=C(c2ccc3c(c2)OCO3)CC1c1cccc(Nc2ccnc3cc(C(F)(F)F)ccc23)c1 (stereo not given)" answer_label=Yes
molecule="N#CC1(C#N)C2=C(CCCC2)NC(c2c(F)cccc2Cl)C1(C#N)C#N (stereo not given)" answer_label=No
molecule=CC(=O)Oc1c2c(nc3c1c1ccccc1n3Cc1ccccc1)-c1ccccc1C2 answer_label=No
